- test_details: yeast display, Sf9 membrane polyspecificity reagent, FACS + sequencing; frameworks hold sequencing errors

[
  {
    "entry_sequence": "QVQLVESGGGLVQAGGSLRLSCAASGFTFSPNAMRWYRQAPGKERELVAAIDWSGDRTYYADSVKGRFTISRDNAKNTVYLQMNSLKPEDTAVYYCAADIRDPGVPMDYWGQGTQVTVSS",
    "polyreactivity (PSR sort gate)": "low polyreactivity"
  },
  {
    "entry_sequence": "QVQLVESGGGLVQAGGSLRLSCAASGRTFGKNAMGWYRQAPGKEREFVAAITSRGGSTYYADSVKGRFTISRDNAKNTVYLQMNSLKPEDTAVYYCAADYYQWSTFLGVYEYDYWGQGTQVTVSS",
    "polyreactivity (PSR sort gate)": "low polyreactivity"
  },
  {
    "entry_sequence": "QVQLVESGGGLVQAGGSLRLSCAASGFIIGLYAMGWYRQAPGKERELVAAISGSGGSTYYADSVKGRFTISRDNAKNTVYLQMNSLKPEDTAVYYCNGAHGVHTYVYRYCYWGQGTQVTVSS",
    "polyreactivity (PSR sort gate)": "low polyreactivity"
  },
  {
    "entry_sequence": "QVQLVESGGGLVQAGGSLRLSCAASGSIFVLYAMGLYRQAPGTERELVAAITTGGGTNYADSVKGRFTISRDNAKNTVYLQINSLKPEDTAVYYCAADTGWYDDWTHDYWGQGTQVTVSS",
    "polyreactivity (PSR sort gate)": "low polyreactivity"
  }
]

----------
- test_details: yeast display, Sf9 membrane polyspecificity reagent, FACS + sequencing; frameworks hold sequencing errors
quantity_name: polyreactivity (PSR sort gate)

Before answering, review these 4 worked examples.
[
  {
    "entry_sequence": "QVQLVESGGGLVQAGGSLRLSCAASGSTFYSNAMGWYRQAPGKERELVAAINYSGGRTYYADSVKGRFTLSRDNAKNTVYLQMNSLKPEDTAVYYCNAQFYNVRGYYIGEYWGQGTQVTVSS",
    "polyreactivity (PSR sort gate)": "high polyreactivity"
  },
  {
    "entry_sequence": "QVQLVESGGGLVQAGGSLRLSCAASGRIFKRYDMGWYRQAPGKERELVAAINRSGGSTYYADSVKGRFTISRDNAKNTVYLQMNSLKPEDTAVYYCAARYRYDGRYDYWGQGTQVTVSS",
    "polyreactivity (PSR sort gate)": "high polyreactivity"
  },
  {
    "entry_sequence": "QVQLVESGGGLVQAGGSLRLSCAASGRIFYSNDLGWYRQAPGKERELVAAITSSGASTYYADSVKGRFTISRDNEKNTVYLQMNSLKPEDTAVYYCNVDIGVYAYESDYWGQGTQVTVSS",
    "polyreactivity (PSR sort gate)": "low polyreactivity"
  },
  {
    "entry_sequence": "QVQLVESGGGLVQAGGSLRLSCAASGSIFFDGNAMGWYRQAPGKERELVAAISVSGGSTYYADSVKGRFTISRDNAKNTVYLQMNSLKPEDTAVYYCAKYPSKSYVPGDYWGQGTQVTVSS",
    "polyreactivity (PSR sort gate)": "low polyreactivity"
  }
]

# sequence QVQLVESGGGLVKSGGSLRLSCAASGRIFYLYAMGWYRQAPGKERELVAAISRRGGGTSYADSVKGRFTISRDNAKNTVYFQMNSLKPEDTAVYYCNTAYSLGGYWGQGTQVTVSS ; its polyreactivity (PSR sort gate) = high polyreactivity
